assay: chemical genetic growth profiling, strain panel (AID 1159580);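 note: tested at 20 µM; growth read once vehicle control cultures reached saturation at 30 °C; 1 = growth at the plate median or of vehicle wells; lower values mean less growth of the strain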; details: S. cerevisiae deletion strains, growth OD, locus YGL167C, strain pmr1, stronger effect = lower value
About 2,000 (36%) of roughly 5,500 compounds were called active. Inconclusive results (about 18%) are left out. The list shows a part of the results.
normalized growth under 1 gets class 1, anything at or over 1 gets class 0.

CNCc1ccccc1
class 0
CCCCCCCCCCCC[C@H](C(=O)O)[C@@H](C)C(=O)O
class 1
Cc1ccc(-c2cc(C(F)(F)F)nn2-c2ccc(S(N)(=O)=O)cc2)cc1
class 0
CC1OC(=O)C(C(C)C)NC(=O)C(C(C)C)OC(=O)C(C(C)C)NC(=O)C(C)OC(=O)C(C(C)C)NC(=O)C(C(C)C)OC(=O)C(C(C)C)NC(=O)C(C)OC(=O)C(C(C)C)NC(=O)C(C(C)C)OC(=O)C(C(C)C)NC1=O (stereo unspecified)
class 1

Now for another entry.
Query: Identify whether the compound CO[C@@]12[C@@H]3NC3CN1C1=C(C(=O)C(N)=C(C)C1=O)[C@@H]2COC(N)=O (stereo partly specified) records normalized growth below 1.
Result: class 1

* * *

experiment: chemical genetic growth profiling, strain panel (AID 1159580); conditions: S. cerevisiae deletion strains, growth OD, locus YMR125W, strain sto1
The whole screen tested about 5,500 compounds, of which about 2,000 (36%) were called active. About 18% were inconclusive and are not listed. Rule as the data show it: active = normalized growth mostly below about 0.91 (no sharp cut-off); inconclusive = no clear call, values can overlap the other calls; inactive = mostly above about 0.92. The list shows a part of the results.
Returns: one label drawn from 1 = active, 0 = inactive

Query: Kindly provide the recorded test outcome for the following molecule: C/C=C(/C)C(=O)OC1CCC2(C)C3CCC4C5(O)CC(O)C6(O)C(CN7CC(C)CCC7C6(C)O)C5(O)CC42OC13O (stereo not given)
Result: 0

* * *

assay: chemical genetic growth profiling, strain panel (AID 1159580); details: S. cerevisiae deletion strains, growth OD, locus YLR370C, strain arc18, stronger effect = lower value
The whole screen tested about 5,500 compounds, of which about 2,000 (36%) were called active. Roughly 18% stayed inconclusive and do not appear here. Some of the results follow.
measuredMetric: normalized growth

COc1cccc2c1C(=O)c1c(O)c3c(c(O)c1C2=O)C[C@@](O)(C(=O)CO)C[C@@H]3OC1C[C@H](N)[C@H](O)[C@H](C)O1 (stereo partly drawn)
0.902 (active)
Nc1ccc(S(=O)(=O)c2ccc(N)cc2)cc1
0.992 (inactive)
COc1cccc2c1C(=O)c1c(O)c3c(c(O)c1C2=O)C[C@@](O)(C(C)=O)C[C@@H]3O[C@H]1C[C@H](N)[C@H](O)[C@H](C)O1
0.97 (inactive)
CC(C)(C#N)O[C@@H]1O[C@H](CO)[C@@H](O)[C@H](O)[C@H]1O
1 (inactive)
COc1cc(C(=O)O[C@H]2CC[C@@]3(C)[C@@H]4CC[C@H]5[C@]6(O)C[C@H](O)[C@@]7(O)[C@@H](CN8C[C@@H](C)CC[C@H]8[C@@]7(C)O)[C@]6(O)C[C@@]53O[C@]24O)cc(OC)c1OC
0.985 (inactive)

Query: Fill in: normalized growth of O=C(CNC(=O)c1ccc(Cl)cc1)NO is ___
Result: 1.01 (inactive)

Query: Fill in: normalized growth of COc1cccc2c1C(=O)c1c(O)c3c(c(O)c1C2=O)C[C@@](O)(C(=O)CO)C[C@@H]3O[C@H]1C[C@H](N)[C@@H](O)[C@H](C)O1 is ___
Result: 0.96 (inactive)

Query: Fill in: normalized growth of NC(Cc1c[nH]c2ccccc12)C(=O)O (stereo not drawn) is ___
Result: 1.02 (inactive)

* * *

Collected normalized growth values appear next to each entry.
experiment: chemical genetic growth profiling, strain panel (AID 1159580); conditions: S. cerevisiae deletion strains, growth OD, locus YIL147C, strain SLN1, stronger effect = lower value
In all, about 5,500 compounds went through this assay and about 2,000 (36%) were called active. Another 18% or so got no clear call; they are omitted. The list shows a part of the results.
A bare number is all that is needed in reply.

Query: Fill in: normalized growth of N#Cc1c2ccccc2nc2ccccc12 is ___
Result: 0.822

Query: Fill in: normalized growth of COC(=O)c1cnn(-c2c(Cl)cccc2Cl)c1C=C(C#N)C#N is ___
Result: 0.947

* * *

experiment: chemical genetic growth profiling, strain panel (AID 1159580); details: S. cerevisiae deletion strains, growth OD, locus YKL193C, strain SDS22, stronger effect = lower value
Out of some 5,500 compounds screened, about 2,000 (36%) were called active. Another 18% or so got no clear call; they are omitted. Some of the results follow.
Collected normalized growth values appear next to each entry.
A bare number is all that is needed in reply.

O=C(NCCNc1ncc(Cl)cc1C(F)(F)F)C(F)(F)Sc1ccccc1
0.973

Query: Fill in: normalized growth of Nc1ccccc1C(=O)N/N=C\c1cc(Br)ccc1O is ___
Result: 0.976

Query: Fill in: normalized growth of Cc1ccc(C)c(CSc2nc(C3CCCCC3)c(C#N)c(=O)[nH]2)c1 is ___
Result: 0.97

* * *

experiment: chemical genetic growth profiling, strain panel (AID 1159580);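 note: tested at 20 µM; growth read once vehicle control cultures reached saturation at 30 °C; 1 = growth at the plate median or of vehicle wells; lower values mean less growth of the strain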; settings: S. cerevisiae deletion strains, growth OD, locus YNL071W, strain lat1, stronger effect = lower value
Screen size: about 5,500 compounds; about 2,000 (36%) were called active. Inconclusive results (about 18%) are left out. The list shows a part of the results.
measuredMetric: normalized growth
A bare number is all that is needed in reply.

COc1ccc2[nH]cc(CCN)c2c1
1.01
CNC(=O)O/N=C\C(C)(C)SC
1.01
OC(CCN1CCCCC1)(c1ccccc1)C1CC2C=CC1C2 (centres undefined)
0.985
C[C@@H]1CC[C@H]2[C@@H](C)C(=O)O[C@@H]3O[C@@]4(C)CC[C@@H]1[C@]32OO4
0.705

Next up:
Query: Fill in: normalized growth of CC(C)(C#N)O[C@@H]1O[C@H](CO)[C@@H](O)[C@H](O)[C@H]1O is ___
Result: 1.01

* * *

assay: chemical genetic growth profiling, strain panel (AID 1159580);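 note: tested at 20 µM; growth read once vehicle control cultures reached saturation at 30 °C; 1 = growth at the plate median or of vehicle wells; lower values mean less growth of the strain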; details: S. cerevisiae deletion strains, growth OD, locus YHR027C, strain rpn1
The campaign covered roughly 5,500 compounds. About 2,000 (36%) were called active. Not shown: some 18% with an inconclusive outcome. Cut-off read from the data, not from the text of the source: active = normalized growth mostly below about 0.91 (no sharp cut-off); inconclusive = no clear call, values can overlap the other calls; inactive = mostly above about 0.92. The list shows a part of the results.
Returns: one label drawn from T (active), F (inactive)

C/C=C1\[C@H]2C=C(C)C[C@]1(N)c1ccc(=O)[nH]c1C2
F
Nc1ccccc1C(=O)CC(N)C(=O)O (centres undefined)
F
COc1cc(N)c(Cl)cc1C(=O)NC1CCN(Cc2ccccc2)CC1
F
O=C1c2c(O)cccc2Cc2cccc(O)c21
F
O=c1oc2cc(O)ccc2s1
F

Query: Kindly provide the recorded test outcome for the following compound: Cc1cc(O)cc(C)c1Cl
Result: T

Query: Kindly provide the recorded test outcome for the following compound: Nc1ccc(S(=O)(=O)c2ccc(N)cc2)cc1
Result: F

Query: Kindly provide the recorded test outcome for the following compound: COc1cc(C(=O)O[C@H]2CC[C@@]3(C)[C@@H]4CC[C@H]5[C@]6(O)C[C@H](O)[C@@]7(O)[C@@H](CN8C[C@@H](C)CC[C@H]8[C@@]7(C)O)[C@]6(O)C[C@@]53O[C@]24O)cc(OC)c1OC
Result: F

* * *

experiment: chemical genetic growth profiling, strain panel (AID 1159580);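 note: tested at 20 µM; growth read once vehicle control cultures reached saturation at 30 °C; 1 = growth at the plate median or of vehicle wells; lower values mean less growth of the strain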; settings: S. cerevisiae deletion strains, growth OD, locus YDL035C, strain GPR1, stronger effect = lower value
The whole screen tested about 5,500 compounds, of which about 2,000 (36%) were called active. Not shown: some 18% with an inconclusive outcome. The list shows a part of the results.
measuredMetric: normalized growth
A bare number is all that is needed in reply.

C[C@@H]1C(=O)O[C@H]2[C@H]1CC[C@@]1(C)C=CC(=O)[C@@]3(C)O[C@@]213
1.02
CC1C(=O)OC2C1CCC1(C)C=CC(=O)C3(C)OC213 (stereo unspecified)
1.02
C[C@@H]1CC[C@H]2[C@@H](C)C(O)O[C@@H]3O[C@@]4(C)CC[C@@H]1[C@]32OO4 (stereo partly specified)
0.295
C[C@@H]1CC[C@H]2[C@@H](C)C(=O)O[C@@H]3O[C@@]4(C)CC[C@@H]1[C@]32OO4
0.825
C/C=C(/C)C(=O)O[C@@H]1[C@H](OC(C)=O)[C@@]2(CO)C(CC1(C)C)C1=CCC3[C@@]4(C)CC[C@H](O[C@@H]5O[C@H](C(=O)O)[C@@H](O[C@@H]6O[C@H](CO)[C@@H](O)[C@H](O)[C@H]6O)[C@H](O)[C@H]5O[C@@H]5O[C@H](CO)[C@@H](O)[C@H](O)[C@H]5O)[C@](C)(CO)C4CC[C@@]3(C)[C@]1(C)C[C@H]2O (stereo partly specified)
1.02

Next up:
Query: Fill in: normalized growth of C[C@@H]1CC[C@]2(C(=O)O)CC[C@]3(C)C(=CCC4[C@@]5(C)CC[C@H](O)C(C)(C)C5CC[C@]43C)C2[C@H]1C (stereo partly specified) is ___
Result: 1.04
